- Tested on: BT-549 breast
- testName: NCI tumour cell line growth inhibition, 48 h
reportedMetric: TGI (µM)

molecule	subjectOfTest	censoringQualifier	experimentalValue
CCN(CC)CCOc1ccc2c(c1)C(=O)c1cc(OCCN(CC)CC)ccc1-2	BT-549 breast	=	46.5
O=C(Nc1cccc(O)c1)c1cccc(NC2=C(Cl)C(=O)N(Cc3ccccc3)C2=O)c1	BT-549 breast	=	2.05
C[C@H](CCC(=O)O)[C@H]1CC[C@H]2[C@@H]3[C@H](O)C[C@@H]4C[C@H](O)CC[C@]4(C)[C@H]3CC[C@]12C	BT-549 breast	>	100
Cc1cc(=O)oc2c3c(ccc12)OC(c1ccc(Br)cc1)CC3=O (configuration not stated)	BT-549 breast	=	11.4
COc1cc2c(cc1C)NC(=O)/C2=C/c1c(Cl)n(-c2ccccc2)c2ccccc12	BT-549 breast	=	66.5
Cc1cc(=O)oc2c(C)c3oc(CBr)c(Br)c3cc12	BT-549 breast	>	100
COC(=O)C1(C2CC/C(C)=C/CC/C(C)=C/CC[C@@]3(C)O[C@@H]3C2)CC1 (some centres not stated)	BT-549 breast	>	100

###

- Test system: RXF 393 renal
- testName: NCI tumour cell line growth inhibition, 48 h

molecule	censoringQualifier	TGI (µM)
O=C(O)C(O)C(O)C(O)C(=O)CO (configuration not stated)	>	100
CCOC(=O)/C(C[C@H]1OC(C)(C)O[C@@H]1[C@H]1COC(C)(C)O1)=N/O	>	100
c1cc[c]([Sn]([S]c2cccc3cccnc23)([S]c2cccc3cccnc23)[c]2ccccc2)cc1	=	0.23
O=c1oc2ccccc2c(O)c1C(c1ccc2c(c1)Cc1ccccc1-2)c1c(O)c2ccccc2oc1=O	=	35.5
Cc1[nH]nc2c1C(=O)C=C(N(CCO)c1ccccc1)C2=O	>	100
Cc1cc(N(CCC#N)CCC#N)ccc1N=Nc1cccc(Cl)c1	>	100
Clc1ccc(C=NC23CC4CC(CC(C4)C2)C3)cc1Cl	>	10
CCCCCCCCCCCCCC(=O)C(C)N (configuration not stated)	=	17
O=C1/C(=C/c2ccccc2)CCc2ccccc21	=	29.7
C#C[C@]1(O)CC[C@H]2[C@@H]3CCC4=C/C(=N\OCCN(CC)CC)CC[C@]4(C)[C@H]3CC[C@@]21C	=	7.35
Cc1cccc(C)c1NC(=O)CCC(=O)NC(N)=S	>	100
CCOc1ccc2ccc3cccnc3c2n1	>	100
O=C(O)c1cscc1Cc1cccs1	>	100
O=S(=O)(O)c1cc(N=[N+]([O-])c2cc(S(=O)(=O)O)c3ccccc3c2)cc2ccccc12	>	100
O=C(NNS(=O)(=O)c1ccc(F)cc1)c1cccnc1Nc1ccc(Cl)cc1Cl	=	27.6
c1cc(-c2cn[nH]c2)cc(-c2cn[nH]c2)c1	=	36.8
O=S(=O)(NC1OCCCC1I)c1ccccc1 (configuration not stated)	>	100
CC1(C)CCC[C@@]2(C)C1C(=O)[C@@H]1O[C@]1(C)[C@@H]2CO (some centres not stated)	=	75.6
C/C1=C\C/C=C(\C)[C@H]2CC(CC/C(C)=C/CC1)[C@](C)(C=O)O2	>	100
CN(NC(=O)/C(=C\c1ccco1)NC(=O)c1ccccc1)c1cn[nH]c(=O)c1Cl	>	100
COC1C(O)C(C)OC(OC2CC3CCC4C(CCC5(C)C(C6=CC(=O)OC6)CCC45O)C3(O)C(OC(C)=O)C2)C1O (configuration not stated)	=	1.32
CC1SC(c2c(Cl)cccc2Cl)N(NC(=O)C(O)c2ccccc2)C1=O (configuration not stated)	>	100

###

- Tested on: OVCAR-5 ovarian
- testName: NCI tumour cell line growth inhibition, 48 h
reportedMetric: log10(TGI) (log10 of the value in µM)

compound	subjectOfTest	experimentalValue
C#C[C@H](CCCC)OC(=O)N[C@H](C)c1ccccc1	OVCAR-5 ovarian	2.00
O=[N+]([O-])c1ccc2c(c1)nc(Cc1ccc(Cl)cc1)n2C[C@@H]1CCCN2CCCCC12 (some centres undefined)	OVCAR-5 ovarian	1.55
CCCCCCNc1nc(N2CCOCC2)c2[nH]c(NCCCCCC)nc2n1	OVCAR-5 ovarian	0.47
CCN(CC)Cc1cc(Nc2c3ccccc3nc3c4ccccc4n(C)c23)ccc1O	OVCAR-5 ovarian	1.34
COc1cc2cc(Oc3ccc(NC(=O)Nc4ccc(Cl)c(C(F)(F)F)c4)cc3)c(C)nc2cc1OC	OVCAR-5 ovarian	0.79
Cc1cc(=O)oc2c3c(ccc12)OC(c1ccc(Br)cc1)CC3=O (centres undefined)	OVCAR-5 ovarian	1.50
O=[N+]([O-])C(=C(Nc1ccccc1)Nc1ccccc1)/C(Cl)=C(\Cl)Br	OVCAR-5 ovarian	1.35
COC1CC(CC2CCC(C)C(C(C)C(=O)O)O2)OC2(OC(C)(C3CCC(C)(C4OC(C5OC(O)(CO)C(C)CC5C)CC4C)O3)CC2C)C1C (centres undefined)	OVCAR-5 ovarian	1.84

###

- System: MDA-MB-231 breast
- testName: NCI tumour cell line growth inhibition, 48 h
# TGI listing for each entry below

compound	TGI
O=S(=O)(O)c1cc(N=[N+]([O-])c2cc(S(=O)(=O)O)c3ccccc3c2)cc2ccccc12	> 100 µM
CN(C)CC1(Cc2ccccc2)CCC(Cc2ccccc2)C1=O (stereo not given)	24.3 µM
CC1SC(c2c(Cl)cccc2Cl)N(NC(=O)C(O)c2ccccc2)C1=O (stereo not given)	> 100 µM
O=C(NCCNCCNC(=O)C(F)(F)F)C(F)(F)F	> 100 µM
CCOC(=O)c1sc2nc(-c3ccccc3)nn2c1CBr	3.69 µM
COc1ccc(-c2nnc(N3CCN(C(=O)CN4CCN(c5ccc(Cl)cc5)CC4)CC3)nc2-c2ccc(OC)cc2)cc1	> 100 µM
CN(NC(=O)/C(=C\c1ccco1)NC(=O)c1ccccc1)c1cn[nH]c(=O)c1Cl	> 100 µM
O=C(O)C(O)C(O)C(O)C(=O)CO (stereo not given)	> 100 µM
CN(/N=C\c1ccc2ccccc2c1)C1=NCCN1	36.1 µM
O=[N+]([O-])c1ccc(/C=C(/c2ccc([N+](=O)[O-])o2)S(=O)(=O)c2ccccc2)o1	16.3 µM
c1ccc2cc(Cn3c[n+](Cc4ccc5ccccc5c4)c4ccccc43)ccc2c1	2.47 µM
COc1cc2c(cc1C)NC(=O)/C2=C/c1c(Cl)n(-c2ccccc2)c2ccccc12	> 100 µM
O=S(=O)(O)c1cc(N=Nc2cc(S(=O)(=O)O)c3cccnc3c2O)ccc1/C=C/c1ccc(N=Nc2cc(S(=O)(=O)O)c3cccnc3c2O)cc1S(=O)(=O)O	> 100 µM
N#Cc1c(N)nc2c(c1-c1ccc(Br)cc1)CSc1ccccc1-2	51.6 µM
COC(CN(C=O)[C@@H](c1ccc(Cl)cc1)c1cc2ccccc2o1)OC	37 µM
COc1ccc(C(=O)N(C(=O)N2CCN(c3ccccc3)CC2)S(=O)(=O)c2ccccc2)cc1	81.9 µM
Nc1ccc(-c2nc3cc(F)ccc3s2)cc1CO	> 70 µM
Cc1cc(=O)[nH]c(/N=C(\N)Nc2ccc(Cl)cc2)n1	> 100 µM
COC(=O)c1ccccc1C1CN=NC12Cc1cc(C)c(C)cc1C2=O (stereo not given)	> 100 µM
COc1cccc(NC(=O)CC(=O)N2N=C(C)C(N=Nc3ccc(S(=O)(=O)CCOS(=O)(=O)O)cc3)C2=O)c1 (stereo not given)	25.6 µM
CCOC(=O)/C(C[C@H]1OC(C)(C)O[C@@H]1[C@H]1COC(C)(C)O1)=N/O	> 100 µM
COc1ccc(/C=C/C(=O)c2cc3c(N)c(C(=O)Nc4ccccc4C)sc3nc2C)cc1	> 38.5 µM
O=C(NNS(=O)(=O)c1ccc(F)cc1)c1cccnc1Nc1ccc(Cl)cc1Cl	> 100 µM
Nc1nc(NCC2(CO)CCC2)cc(=O)[nH]1	> 100 µM
COc1ccc(/C=C(/C)[N+](=O)[O-])cc1	9.89 µM
O=C(O)c1cc(O)c2c(c1)C([C@@H]1c3cccc(O)c3C(=O)c3c(O)cc(C(=O)O)cc31)c1cccc(O)c1C2=O (stereo not given in full)	95.8 µM
COc1ccc2c(c1)cn1c3ccc(O)cc3[nH]c(=O)c21	2.47 µM
COc1cc(-c2cc(/C=C3\C(=O)Nc4ccccc43)[nH]n2)cc(OC)c1OC	27.7 µM
O=c1oc2ccccc2c(O)c1C(c1ccc2c(c1)Cc1ccccc1-2)c1c(O)c2ccccc2oc1=O	57.9 µM
C/C(N=Nc1nc2ccccc2[nH]1)=C1/C=CC=CN1O	> 100 µM

###

- Test system: PC-3 prostate
- testName: NCI tumour cell line growth inhibition, 48 h

compound	GI50
CC1SC(c2c(Cl)cccc2Cl)N(NC(=O)C(O)c2ccccc2)C1=O (configuration not stated)	39.7 µM
CCCN1C(=O)CSC1=Nc1ccc2cc3ccc(N=C4SCC(=O)N4CCC)cc3nc2c1	78.1 µM
Cc1cccc2c1O/C(=C\c1ccc([N+](=O)[O-])o1)C2=O	1.34 µM
COc1cc(NCc2ccccc2O)c2ncccc2c1	10.6 µM
Cc1ccc(NC(=O)c2[nH]c(SCCN(C)C)nc2-c2ccc(F)cc2)cc1C#Cc1cnc2cccnn12	2.12 µM
CCCCCCCCCCCCCC(=O)C(C)N (configuration not stated)	2.64 µM
N#C/C(N)=C(\C#N)N=Cc1csc2ccccc12	47.3 µM
CC(C)(C)OC(=O)CN1CCc2c(sc3ncnc(N/N=C/c4cccc5ccccc45)c23)C1	2.04 µM
C[C@@H](Oc1ccc2[nH]nc(/C=C/c3cnn(CCO)c3)c2c1)c1c(Cl)cncc1Cl	1.41 µM
O=C(Nc1cccc(O)c1)c1cccc(NC2=C(Cl)C(=O)N(Cc3ccccc3)C2=O)c1	8.29 µM
O=C(NNS(=O)(=O)c1ccc(F)cc1)c1cccnc1Nc1ccc(Cl)cc1Cl	14.8 µM
O=C(O)c1cc(Cc2ccc(O)c(C(=O)O)c2)ccc1O (tested in a mixture with another compound)	3.58 µM
